# SYSTEM_UNDER_TEST: Aldo-keto reductase family 1 member B1 (Rattus norvegicus)
# TEST_NAME: Inhibition of Rattus norvegicus (rat) aldose reductase isolated from lens using DL-glyceraldehyde as substrate after 30 min by fluorometric analysis
MEASURE_NAME: IC50 (nM)
Give the value, in units of nM, as a plain number.

So what's the measured IC50 for this one? O=c1cc(-c2ccc(O)cc2)oc2c([C@@H]3O[C@H](CO)[C@@H](O)[C@H](O)[C@H]3O)c(O)cc(O)c12 2030

###

# SYSTEM_UNDER_TEST: Aldo-keto reductase family 1 member B1 (Homo sapiens)
# TEST_NAME: Inhibition of aldose reductase (unknown origin)
MEASURE_NAME: IC50
Kindly write the number and append the unit.

O=c1cc(-c2ccc(O)c(O)c2)oc2cc(O)c([C@@H]3O[C@H](CO)[C@@H](O)[C@H](O)[C@H]3O)c(O)c12: 1910 nM

So what's the measured IC50 for this one? COc1cc(-c2cc(=O)c3c(O)cc(O)cc3o2)cc(OC)c1O 2030 nM
